This collection of values is drawn from the kinase profiling compilation of Christmann-Franck et al. (2016).

Property: residual activity; scope: individual compounds
- ASSAYED_SYSTEM: SRPK3 (human)
- PROCEDURE_DETAILS: radiometric filter-binding kinase assay, Kinase HotSpot
- EXPERIMENTAL_PARAMETERS: compound 0.5 µM; ATP 10 µM
Your answer should be a plain number; it is taken to be in %.

Check out these entries, answers already filled in.
1. Cc1ccc(S(=O)(=O)/C=C/C#N)cc1: 104
2. CCOC(=O)c1c(C)[nH]c(/C=C2\C(=O)Nc3ccccc32)c1C: 88.8
3. CC(C)N(CCC(=O)c1ccc2ccccc2c1)Cc1ccccc1: 96.5
4. Nc1cccc(-c2cc3c(Oc4cccc(O)c4)ncnc3[nH]2)c1: 101
5. Cc1[nH]c(/C=C2\C(=O)Nc3ccc(S(=O)(=O)N(C)c4cccc(Cl)c4)cc32)c(C)c1C(=O)N1CCN(C)CC1: 84.8
6. O=S(=O)(c1cccc2cnccc12)N1CCCNCC1: 96.4

In: Give SRPK3 (human) residual activity for `CCN(CC)CCNC(=O)c1c(C)[nH]c(/C=C2\C(=O)Nc3ccc(Cl)cc32)c1C`
Out: 92.8
